Each entry below lists one item and its recorded pKd value.
Sequence of the target: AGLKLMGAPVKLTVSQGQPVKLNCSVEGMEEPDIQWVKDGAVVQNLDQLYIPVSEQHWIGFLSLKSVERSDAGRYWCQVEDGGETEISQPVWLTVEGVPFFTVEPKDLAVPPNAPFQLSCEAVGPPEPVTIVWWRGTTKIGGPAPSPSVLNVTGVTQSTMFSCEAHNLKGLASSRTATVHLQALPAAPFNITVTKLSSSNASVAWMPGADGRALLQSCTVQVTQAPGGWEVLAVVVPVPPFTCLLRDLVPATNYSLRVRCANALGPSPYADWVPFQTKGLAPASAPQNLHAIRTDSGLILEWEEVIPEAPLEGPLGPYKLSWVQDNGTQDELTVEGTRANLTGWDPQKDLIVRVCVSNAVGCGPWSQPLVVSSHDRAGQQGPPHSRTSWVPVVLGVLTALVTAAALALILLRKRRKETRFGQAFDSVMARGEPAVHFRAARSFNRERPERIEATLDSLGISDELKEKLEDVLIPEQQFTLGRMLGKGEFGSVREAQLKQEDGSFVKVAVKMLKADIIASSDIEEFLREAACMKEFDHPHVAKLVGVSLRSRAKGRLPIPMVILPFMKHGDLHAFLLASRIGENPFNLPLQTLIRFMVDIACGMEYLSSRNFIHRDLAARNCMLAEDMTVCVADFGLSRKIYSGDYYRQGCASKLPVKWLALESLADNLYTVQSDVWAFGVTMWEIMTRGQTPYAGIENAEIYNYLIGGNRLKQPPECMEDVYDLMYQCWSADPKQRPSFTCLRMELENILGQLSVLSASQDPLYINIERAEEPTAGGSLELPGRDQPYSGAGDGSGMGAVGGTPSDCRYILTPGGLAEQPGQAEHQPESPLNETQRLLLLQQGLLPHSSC
pKd: −log10 of the molar value.

Solved cases (3 shown):
INSERT INTO assay_data (molecule, measurement_name, test_result) VALUES
  ('CCOc1cn(-c2c(C)ccnc2C)nc1C(=O)Nc1ccc(Oc2ccnc3cc(OC)c(OC)cc23)cn1', 'pKd', '> 7.00'),
  ('CCOc1cn(-c2ccc(C(C)(C)C)cc2)nc1C(=O)Nc1ccc(Oc2ccnc3cc(OC)c(OC)cc23)cn1', 'pKd', '≤ 6.00'),
  ('CCOc1cn(-c2cnccc2C(C)(O)CO)nc1C(=O)Nc1ccc(Oc2ccnc3cc(OC)c(OC)cc23)cn1 (stereo not shown)', 'pKd', '> 7.00');

Attention now shifts to the item below.
Check the records and state pKd for CCOc1cn(-c2cnccc2CO)nc1C(=O)Nc1ccc(Oc2ccnc3cc(OC)c(OC)cc23)cn1
> 7.00

====

Sequence of the target: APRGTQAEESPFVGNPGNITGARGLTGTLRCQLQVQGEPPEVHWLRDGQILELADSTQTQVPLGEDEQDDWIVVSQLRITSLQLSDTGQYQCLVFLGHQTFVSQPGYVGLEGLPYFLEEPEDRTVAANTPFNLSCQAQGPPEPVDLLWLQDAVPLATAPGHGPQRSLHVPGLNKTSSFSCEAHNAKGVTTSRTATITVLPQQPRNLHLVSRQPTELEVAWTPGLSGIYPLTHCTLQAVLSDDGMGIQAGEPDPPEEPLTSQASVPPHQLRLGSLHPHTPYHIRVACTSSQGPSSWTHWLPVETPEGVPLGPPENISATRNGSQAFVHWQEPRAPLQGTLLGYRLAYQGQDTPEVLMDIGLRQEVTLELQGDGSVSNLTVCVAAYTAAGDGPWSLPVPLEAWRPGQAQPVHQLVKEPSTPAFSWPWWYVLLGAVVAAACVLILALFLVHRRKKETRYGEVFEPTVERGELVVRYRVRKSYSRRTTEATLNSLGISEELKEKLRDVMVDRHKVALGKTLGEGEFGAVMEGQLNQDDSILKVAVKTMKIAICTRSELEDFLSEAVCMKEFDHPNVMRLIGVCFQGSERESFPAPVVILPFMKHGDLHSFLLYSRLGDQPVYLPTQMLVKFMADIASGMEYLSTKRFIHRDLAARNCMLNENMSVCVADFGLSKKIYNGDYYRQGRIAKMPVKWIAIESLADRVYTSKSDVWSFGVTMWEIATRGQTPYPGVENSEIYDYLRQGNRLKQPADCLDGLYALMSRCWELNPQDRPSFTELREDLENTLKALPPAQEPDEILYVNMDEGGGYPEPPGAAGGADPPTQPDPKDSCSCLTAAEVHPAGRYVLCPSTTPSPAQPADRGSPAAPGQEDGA
Recorded Kd by entry

INSERT INTO results (compound, test_result) VALUES
  ('CCOc1cn(-c2ccc(F)cc2C)nc1C(=O)Nc1csc(Oc2ccnc3cc(OC)c(OC)cc23)n1 [Compound 122]', '≥ 1000 nM');

Supply recorded Kd for CCOc1cn(-c2cnccc2CN(C)C)nc1C(=O)Nc1ccc(Oc2ccnc3cc(OC)c(OC)cc23)cn1 [Compound 73] here.
< 100 nM

Please supply the value of reported Kd for the item CCOc1cn(-c2ncc(N)cn2)nc1C(=O)Nc1ccc(Oc2ccnc3cc(OC)c(OC)cc23)cn1 [Compound 93]
< 100 nM

Tell us which Kd value is on record for CCOc1cnn(-c2ccc(C(F)(F)F)cc2C)c1C(=O)Nc1ccc(Oc2ccnc3cc(OC)c(OC)cc23)cn1 [Compound 102]
< 100 nM

Identify Kd associated with the compound CCOc1cn(C2CCCN(C)C2)nc1C(=O)Nc1ccc(Oc2ccnc3cc(OC)c(OC)cc23)cc1F (stereo not shown) [Compound 211]
100 to 1000 nM

Look up and state reported Kd for CCOc1cnn(-c2cnc(N)nc2)c1C(=O)Nc1ccc(Oc2ccnc3cc(OC(C)C)c(OC)cc23)cc1F [Compound 232]
100 to 1000 nM

Look up and report measured Kd for this entry: CCOc1cn(-c2ccc(C)cc2F)nc1C(=O)Nc1ccc(Oc2ccnc3cc(OC)c(OC)cc23)cn1 [Compound 100]
< 100 nM

====

# target: Axl (Homo sapiens)
# Sequence (P30530 26-894): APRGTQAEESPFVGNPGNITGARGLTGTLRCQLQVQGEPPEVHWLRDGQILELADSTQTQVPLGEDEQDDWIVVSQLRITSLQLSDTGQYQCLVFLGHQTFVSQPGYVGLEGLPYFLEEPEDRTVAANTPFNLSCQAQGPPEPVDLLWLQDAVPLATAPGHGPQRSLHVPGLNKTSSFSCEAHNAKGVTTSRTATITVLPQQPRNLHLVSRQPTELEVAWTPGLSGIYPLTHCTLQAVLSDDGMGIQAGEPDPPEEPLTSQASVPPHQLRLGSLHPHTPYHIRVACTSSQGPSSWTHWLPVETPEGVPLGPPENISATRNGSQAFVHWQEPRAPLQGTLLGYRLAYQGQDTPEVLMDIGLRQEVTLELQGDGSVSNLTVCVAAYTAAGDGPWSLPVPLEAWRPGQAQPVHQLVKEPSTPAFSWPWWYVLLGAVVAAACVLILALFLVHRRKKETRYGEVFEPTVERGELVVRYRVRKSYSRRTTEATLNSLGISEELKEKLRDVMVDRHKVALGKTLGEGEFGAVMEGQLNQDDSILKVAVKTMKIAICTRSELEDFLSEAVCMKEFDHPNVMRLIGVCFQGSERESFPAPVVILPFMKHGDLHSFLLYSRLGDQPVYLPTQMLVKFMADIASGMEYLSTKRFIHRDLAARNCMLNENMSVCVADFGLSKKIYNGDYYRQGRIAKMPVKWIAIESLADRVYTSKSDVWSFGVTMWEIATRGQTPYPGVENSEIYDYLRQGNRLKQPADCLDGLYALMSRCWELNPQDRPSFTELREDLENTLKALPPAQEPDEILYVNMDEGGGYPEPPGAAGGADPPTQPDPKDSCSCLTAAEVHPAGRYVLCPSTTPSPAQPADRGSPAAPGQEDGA
Measured Kd accompanies every entry in the list below.

Examples from the recorded data:
INSERT INTO results (compound, measurement_name, test_result) VALUES
  ('CCOc1cnn(C2CCCN(C)C2)c1C(=O)Nc1ccc(Oc2ccnc3cc(OC)c(OC)cc23)cc1F (centres unmarked) [Compound 213]', 'Kd', '≥ 1000 nM'),
  ('CCOc1cn(-c2ccc(F)cc2C)nc1C(=O)Nc1ccc(Oc2ccnc3cc(OC)c(OC)cc23)c(NC(C)C)c1 [Compound 91]', 'Kd', '100 to 1000 nM'),
  ('CCOc1cn(C2CCOC2)nc1C(=O)Nc1ccc(Oc2ccnc3cc(OC)c(OC)cc23)cn1 (centres unmarked) [Compound 76]', 'Kd', '< 100 nM'),
  ('CCOc1cn(-c2cnccn2)nc1C(=O)NC1CC(Oc2ccnc3cc(OC)c(OC)cc23)C1 (centres unmarked) [Compound 204]', 'Kd', '≥ 1000 nM');

Return Kd (reported value) for this compound: COc1cc2c(Oc3ccc(NC(=O)c4nn(-c5cnc(N)cn5)cc4OCC(F)(F)F)nc3)ccnc2cc1OC(C)C [Compound 253]
< 100 nM

Name the recorded Kd of the item CCOc1cn(-c2ccc(Cl)cc2C(F)(F)F)nc1C(=O)Nc1ccc(Oc2ccnc3cc(OC)c(OC)cc23)cn1 [Compound 101] in your answer.
< 100 nM

# return recorded Kd for entry COc1cc2nccc(Oc3ccc(NC(=O)c4nn(-c5cccnc5)cc4OCC4CC4)nc3)c2cc1OC(F)(F)F [Compound 239]
< 100 nM

Fill in Kd for record CCOc1cn(CC(N)=O)nc1C(=O)Nc1ccc(Oc2ccnc3cc(OC)c(OC)cc23)cn1 [Compound 35]
100 to 1000 nM

Please report Kd for the following compound: CCOc1cn(-c2cnccc2C(F)(F)F)nc1C(=O)Nc1ccc(Oc2ccnc3cc(OC)c(OC)cc23)cc1F [Compound 196]
< 100 nM

Tell me measured Kd for CCOc1cn(-c2nc[nH]n2)nc1C(=O)Nc1ccc(Oc2ccnc3cc(OC)c(OC)cc23)cn1 [Compound 168] please.
< 100 nM

Please look at this compound and report its Kd: CCOc1cn(C)nc1C(=O)Nc1ccc(Oc2ccnc3cc(OC)c(OC)cc23)cn1 [Compound 29]
100 to 1000 nM
